# protocol: chemical genetic growth profiling, strain panel (AID 1159580);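 also: tested at 20 µM; growth read once vehicle control cultures reached saturation at 30 °C; 1 = growth at the plate median or of vehicle wells; lower values mean less growth of the strain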
# details: S. cerevisiae deletion strains, growth OD, locus YDR318W, strain mcm21, hits give low values
Out of some 5,500 compounds screened, about 2,000 (36%) were called active. About 18% were inconclusive and are not listed. The list shows a part of the results.
Reported normalized growth by item:
Lab note: jot the number down without any unit.

# count of solved cases: 6
compound	normalized growth
CC1(C)C(=O)C=C[C@@]2(C)C1=C(O)C(=O)[C@]1(C)C2CC[C@@]2(C)[C@H](c3ccoc3)C[C@H]3O[C@]321 (stereo partly drawn)	0.762
C[C@H](N)[C@H](O)c1ccc(O)c(O)c1	0.98
CC(=O)Oc1ccc(Cl)c2cccnc12	0.064
O=C1CCCC2C3CC(CN12)[C@@H]1CCCCN1C3 (stereo partly drawn)	1
O=c1[nH]c(=O)n(C2C[C@@H](O)[C@@H](CO)O2)cc1F (stereo partly drawn)	1.01
NCCNC(=O)c1ccc(Cl)cc1	0.987

Here's the next entry for you.
Recall and state the measured normalized growth for Nc1nc2ncc(C(=O)O)nc2c(=O)[nH]1 .
1.02

* * *

# protocol: chemical genetic growth profiling, strain panel (AID 1159580);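 also: tested at 20 µM; growth read once vehicle control cultures reached saturation at 30 °C; 1 = growth at the plate median or of vehicle wells; lower values mean less growth of the strain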
# details: S. cerevisiae deletion strains, growth OD, locus YKL193C, strain SDS22
Out of some 5,500 compounds screened, about 2,000 (36%) were called active. Roughly 18% stayed inconclusive and do not appear here. Cut-off read from the data, not from the text of the source: active = normalized growth mostly below about 0.91 (no sharp cut-off); inconclusive = no clear call, values can overlap the other calls; inactive = mostly above about 0.92. This is one part of the list.
Choose one outcome from this list and give only that: 1 (yes) (active), 0 (no) (inactive)

compound	class
O=[N+]([O-])c1cc(Br)cnc1Sc1nnc(SCC2CC2)s1	0 (no)

Kindly provide the recorded test outcome for the following compound: NC(=Nc1ccc(F)cc1)SCc1c(Cl)cccc1Cl
0 (no)

Kindly provide the recorded test outcome for the following compound: CCCc1c(C(=O)Sc2ccccn2)cnn1-c1ccc(Cl)cc1
0 (no)

Kindly provide the recorded test outcome for the following compound: O=C(NC(=S)Nc1cccc(C(F)(F)F)c1)c1ccc2nonc2c1
0 (no)

* * *

# protocol: chemical genetic growth profiling, strain panel (AID 1159580);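 also: tested at 20 µM; growth read once vehicle control cultures reached saturation at 30 °C; 1 = growth at the plate median or of vehicle wells; lower values mean less growth of the strain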
# details: S. cerevisiae deletion strains, growth OD, locus YGL240W, strain doc1, hits give low values
Screen size: about 5,500 compounds; about 2,000 (36%) were called active. Roughly 18% stayed inconclusive and do not appear here. The list shows a part of the results.
Reported normalized growth by item:
Lab note: jot the number down without any unit.

compound	value-observed
C=C(C)[C@H]1CC=C(C(=O)O)CC1	0.956
C=CC(C)(O)CC/C=C(\C)CCC=C(C)C (stereo not drawn)	0.964
CCCCC(CC)CN1CN(CC(CC)CCCC)CC(C)(N)C1 (stereo not drawn)	0.0704

Recall and state the measured normalized growth for C=CC(C1=CC(=O)C(OC)=CC1=O)c1ccc(OC)cc1 (stereo not drawn) .
0.743

Recall and state the measured normalized growth for N[C@@H](Cc1ccc(O)c(O)c1)C(=O)O .
0.986

Recall and state the measured normalized growth for CC(C)=CCC/C(C)=C/CC/C(C)=C/CC/C(C)=C/CC/C(C)=C/CC/C(C)=C/CC/C(C)=C/CC/C(C)=C/CC/C(C)=C/CO .
1.03

Recall and state the measured normalized growth for CCN(CC)CCNC(=O)c1cc(S(C)(=O)=O)ccc1OC .
0.972

Recall and state the measured normalized growth for CCCC(C)C1(CC)C(=O)N=C(S)NC1=O (stereo not drawn) .
0.982

Recall and state the measured normalized growth for Nc1ncn([C@@H]2O[C@H](CO)[C@@H](O)[C@H]2O)c(=O)n1 .
0.951

Recall and state the measured normalized growth for C[C@H](N)[C@H](O)c1ccc(O)c(O)c1 .
1.01

Recall and state the measured normalized growth for C[C@H]1[C@H]2CCC3C4CC=C5C[C@@H](N(C)C)CC[C@]5(C)C4CC[C@@]32CN1C (stereo partly drawn) .
0.967

Recall and state the measured normalized growth for CC(=O)Nc1ccc(S(=O)(=O)c2ccc(NC(C)=O)cc2)cc1 .
1.02

Recall and state the measured normalized growth for CS(=O)(=O)CCCCN=C=S .
0.545

Recall and state the measured normalized growth for C=CC(C1=CC(=O)C=CC1=O)c1ccccc1 (stereo not drawn) .
0.964
